- system: Neurotensin receptor type 1 (Rattus norvegicus) (UniProt P20789)
- Sequence (P20789 whole entry): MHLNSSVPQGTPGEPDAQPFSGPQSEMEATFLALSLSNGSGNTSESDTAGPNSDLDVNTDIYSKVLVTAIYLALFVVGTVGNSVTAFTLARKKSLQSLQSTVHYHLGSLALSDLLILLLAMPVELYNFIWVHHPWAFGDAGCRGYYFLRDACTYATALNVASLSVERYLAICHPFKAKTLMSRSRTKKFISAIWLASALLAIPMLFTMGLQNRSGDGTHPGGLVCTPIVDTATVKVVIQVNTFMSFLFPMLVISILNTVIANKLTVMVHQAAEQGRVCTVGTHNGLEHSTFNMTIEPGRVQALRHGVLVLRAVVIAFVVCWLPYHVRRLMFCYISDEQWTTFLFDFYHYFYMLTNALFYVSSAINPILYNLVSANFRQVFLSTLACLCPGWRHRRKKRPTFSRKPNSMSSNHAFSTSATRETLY
- test-protocol: Relative potency at neurotensin receptor compared to neurotensin (NT8-13)
observable: Relative potency

CC[C@H](C)[C@H](NC(=O)[C@H](Cc1ccc(O)cc1)NC(=O)[C@@H]1CCCN1C(=O)[C@H](CCCN=C(N)N)NC(=O)[C@@H](N)CCCN=C(N)N)C(=O)C[C@H](Cc1ccccc1)C(=O)O (mixture of isomers) = 1.1

1. CC(C)C[C@H](NC(=O)[C@H](CC(=O)[C@H](Cc1ccc(O)cc1)NC(=O)[C@@H]1CCCN1C(=O)[C@H](CCCNC(=N)N)NC(=O)[C@@H](N)CCCNC(=N)N)Cc1ccccc1)C(=O)O
2. CC[C@@H](C)[C@@H](NC[C@H](Cc1ccc(O)cc1)NC(=O)[C@@H]1CCCN1C(=O)[C@H](CCCN=C(N)N)NC(=O)[C@@H](N)CCCN=C(N)N)C(=O)N[C@@H](CC(C)C)C(=O)O
Q) I'm curious, which of these has a smaller Relative potency number: 1 or 2 ? Choose, then provide that item's label.
A) 2

----------
- system: Neurotensin receptor type 1 (Rattus norvegicus)
- test-protocol: IC50 was measured as binding to rat cortex membranes using [3H]- NT(neurotensin) as tracer
observable: IC50 (µM)

Sample answers from the record:
CC[C@H](C)[C@H](NC(=O)[C@H](Cc1ccc(O)cc1)NC(=O)[C@@H]1CCCN1C(=O)[C@H](CCCNC(=N)N)NC(=O)[C@@H](N)CCCNC(=N)N)C(=O)N[C@@H](Cc1ccccc1)C(=O)O = 0.005
CC[C@H](C)[C@H](NC[C@H](Cc1ccc(O)cc1)NC(=O)[C@@H]1CCCN1C(=O)[C@H](CCCN=C(N)N)NC(=O)[C@@H](N)CCCN=C(N)N)C(=O)N[C@@H](CC(C)C)C(=O)O = 6.31
CC[C@H](C)[C@H](NC(=O)[C@H](Cc1ccc(O)cc1)NC(=O)[C@@H]1CCCN1C(=O)[C@H](CCCN=C(N)N)NC(=O)[C@@H](N)CCCN=C(N)N)C(=O)C[C@H](Cc1ccccc1)C(=O)O (stereo in doubt; 13b) = 1.2

A. CC[C@H](C)[C@H](NC(=O)[C@H](Cc1ccc(O)cc1)NC(=O)[C@@H]1CCCN1C(=O)[C@H](CCCN=C(N)N)NC(=O)[C@@H](N)CCCN=C(N)N)C(=O)C[C@H](Cc1ccccc1)C(=O)O (mixture of isomers)
B. CC(C)C[C@H](NC(=O)C(CC(=O)[C@H](Cc1ccc(O)cc1)NC(=O)[C@@H]1CCCN1C(=O)[C@H](CCCNC(=N)N)NC(=O)[C@@H](N)CCCNC(=N)N)Cc1ccccc1)C(=O)O (single isomer, unassigned)
Q) Would you let me know which has the greater IC50 value, A or B ? Choose, then provide that item's label.
A) A
(A: 0.9 µM, B: 0.015 µM)

----------
- system: Neurotensin receptor type 1 (Rattus norvegicus, UniProt P20789)
- test-protocol: IC50 was measured as binding to rat cortex membranes using [3H]- NT(neurotensin) as tracer
Peptide text beside a SMILES is read from it. * marks the point of attachment. X2 = CC[C@@H](C)[C@H](CN[C@@H](Cc1ccccc1)C(=O)O)N*
observable: IC50 (nM)

Sample answers from the record:
CC(C)C[C@H](NC(=O)[C@H](Cc1ccccc1)NC(=O)[C@H](Cc1ccc(O)cc1)NC(=O)[C@@H]1CCCN1C(=O)[C@H](CCCN=C(N)N)NC(=O)[C@@H](N)CCCN=C(N)N)C(=O)O = 8
CC[C@H](C)[C@H](NC(=O)[C@H](Cc1ccc(O)cc1)NC(=O)[C@@H]1CCCN1C(=O)[C@H](CCCN=C(N)N)NC(=O)[C@@H](N)CCCN=C(N)N)C(=O)C[C@H](Cc1ccccc1)C(=O)O (stereo in doubt; 13c) = 1500
CC[C@@H](C)[C@H](CN[C@@H](Cc1ccccc1)C(=O)O)NC(=O)[C@H](Cc1ccc(O)cc1)NC(=O)[C@@H]1CCCN1C(=O)[C@H](CCCNC(=N)N)NC(=O)[C@@H](N)CCCNC(=N)N (H-RRPY-X2) = 8000

a. CC[C@H](C)[C@H](NC(=O)[C@H](Cc1ccc(O)cc1)NC(=O)[C@@H]1CCCN1C(=O)[C@H](CCCN=C(N)N)NC(=O)[C@@H](N)CCCN=C(N)N)C(=O)C[C@H](Cc1ccccc1)C(=O)O (stereo in doubt; 13a)
b. CC(C)C[C@H](NC(=O)[C@H](CC(=O)[C@H](Cc1ccc(O)cc1)NC(=O)[C@@H]1CCCN1C(=O)[C@H](CCCNC(=N)N)NC(=O)[C@@H](N)CCCNC(=N)N)Cc1ccccc1)C(=O)O
Q) Would you let me know which has the greater IC50 value, a or b ? Choose, then provide that item's label.
A) b
(b: 1200 nM, a: 120 nM)
